experimental_target: rhodesain (Trypanosoma brucei rhodesiense, UniProt Q95PM0, S297A)
Sequence (Q95PM0 126-342 S297A): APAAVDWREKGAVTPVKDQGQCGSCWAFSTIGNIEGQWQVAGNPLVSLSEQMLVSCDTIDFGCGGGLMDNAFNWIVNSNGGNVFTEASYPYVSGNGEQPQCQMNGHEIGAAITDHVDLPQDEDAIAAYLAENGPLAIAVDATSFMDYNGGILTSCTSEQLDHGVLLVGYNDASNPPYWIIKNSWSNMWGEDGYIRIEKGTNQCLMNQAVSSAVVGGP
method: Rhodesain inhibition, fluorogenic substrate Cbz-Phe-Arg-AMC
Type: biochemical
pKi: −log10 of the molar value.
assay_metric: pKi

INSERT INTO results (chem_smiles, test_result) VALUES
  ('CC(C)C[C@H](NC(=O)[C@H](Cc1ccccc1)Nc1cc([N+](=O)[O-])c([N+](=O)[O-])cc1F)C(=O)O', 8.40);

---

experimental_target: serine protease of the Dengue virus (DENV PR) (Dengue virus type 2, UniProt P29990)
Construct: the serine protease of the Dengue virus (DENV PR)
Sequence (P29990 1394-1440): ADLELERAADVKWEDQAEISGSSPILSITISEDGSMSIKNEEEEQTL
Sequence (P29990 1476-1653): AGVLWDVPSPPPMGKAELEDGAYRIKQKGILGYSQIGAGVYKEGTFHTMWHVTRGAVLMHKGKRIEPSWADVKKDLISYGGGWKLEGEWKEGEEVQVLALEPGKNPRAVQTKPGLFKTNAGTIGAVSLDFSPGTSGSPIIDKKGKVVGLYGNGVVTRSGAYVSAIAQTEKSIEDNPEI
method: Dengue virus protease inhibition assay
Assay type: biochemical
protocol_conditions: 20 µM inhibitor
// label = label 1 if inhibition at 20 µM is not less than 20%, otherwise label 0

INSERT INTO measurements (chem_smiles, experimental_target, category_label) VALUES
  ('CC(C)C[C@H](NC(=O)[C@H](Cc1ccccc1)NC(=O)c1cc([N+](=O)[O-])ccc1F)C(=O)OCc1ccccc1', 'serine protease of the Dengue virus (DENV PR) (Dengue virus type 2, UniProt P29990)', 'label 0'),
  ('CC(C)C[C@H](NC(=O)[C@H](Cc1ccccc1)Nc1cc(F)c([N+](=O)[O-])cc1[N+](=O)[O-])C(=O)OCc1ccccc1', 'serine protease of the Dengue virus (DENV PR) (Dengue virus type 2, UniProt P29990)', 'label 1'),
  ('CC(C)C[C@H](NC(=O)[C@H](Cc1ccccc1)Nc1cc(Cl)ncn1)C(=O)OCc1ccccc1', 'serine protease of the Dengue virus (DENV PR) (Dengue virus type 2, UniProt P29990)', 'label 1'),
  ('CC(C)C[C@H](NC(=O)[C@H](Cc1ccccc1)NC(=O)c1cccc([N+](=O)[O-])c1F)C(=O)OCc1ccccc1', 'serine protease of the Dengue virus (DENV PR) (Dengue virus type 2, UniProt P29990)', 'label 0'),
  ('CC(C)C[C@H](NC(=O)[C@H](Cc1ccccc1)Nc1cc([N+](=O)[O-])c([N+](=O)[O-])cc1F)C(=O)OCc1ccccc1', 'serine protease of the Dengue virus (DENV PR) (Dengue virus type 2, UniProt P29990)', 'label 1'),
  ('CC(C)C[C@H](NC(=O)[C@H](Cc1ccccc1)NC(=O)c1ccc(Cl)nc1Cl)C(=O)OCc1ccccc1', 'serine protease of the Dengue virus (DENV PR) (Dengue virus type 2, UniProt P29990)', 'label 0'),
  ('CC(C)C[C@H](NC(=O)[C@H](Cc1ccccc1)NC(=O)Nc1ccc(F)c([N+](=O)[O-])c1)C(=O)OCc1ccccc1', 'serine protease of the Dengue virus (DENV PR) (Dengue virus type 2, UniProt P29990)', 'label 0');

The reported numbers originate from paper PMC7145299.
